# assay.procedure: Luciferase activity of purified RLuc mutants (light output integrated over 10 s, luminometer)
# Assay type: biochemical
# protocol.conditions: benzyl-coelenterazine; relative to native enzyme
# Description: Luminometer Calibration: Light measurements were made using a Turner 20/20 and later a Turner 20/20n luminometer (Turner Designs, Sunnyvale, Calif.). […] Characterization of Renilla Luciferase Mutants: Luciferase activity was measured by adding 1 μl of sample (diluted as necessary in EB containing 1% HSA) to 100 μl room temperature 100 mM sodium phosphate buffer (pH 7), manually adding 1 μl of 0.5 μg/μl coelenterazine or analog, manually mixing, and reading for 10 s in a luminometer. […]
measured.quantity: Activity (relative to RLuc) bc
Respond using a number only.

Record C124A/A143M: RLuc mutant C124A/A143M (protein) MASKVYDPEQRKRMITGPQWWARCKQMNVLDSFINYYDSEKHAENAVIFLHGNAASSYLWRHVVPHIEPVARCIIPDLIGMGKSGKSGNGSYRLLDHYKYLTAWFELLNLPKKIIFVGHDWGAALAFHYSYEHQDKIKAIVHMESVVDVIESWDEWPDIEEDIALIKSEEGEKMVLENNFFVETMLPSKIMRKLEPEEFAAYLEPFKEKGEVRRPTLSWPREIPLVKGGKPDVVQIVRNYNAYLRASDDLPKMFIESDPGFFSNAIVEGAKKFPNTEFVKVKGLHFSQEDAPDEMGKYIKSFVERVLKNEQ , field Activity (relative to RLuc) bc: 1.3
